Values of Ki reported for Rat A2A AR (Rattus norvegicus) appear below.
reportedEndpoint: Ki (nM)

// solved cases for Ki follow
C#CCn1c(=O)c2c(nc(C#Cc3ccsc3)n2C)n(CC)c1=O [drawing 510] | 108
C#CCn1c(=O)c2c(nc(C#Cc3ccc(OC)c(OC)c3)n2C)n(CCCOC)c1=O [drawing 506] | 44
C#CCn1c(=O)c2c(nc(C#Cc3ccc(OC)c(OC)c3)n2C)n(CCO)c1=O [drawing 499] | 45.5

I: C#CCn1c(=O)c2c(nc(C#Cc3cccc(OC)c3)n2C)n(CC=C)c1=O [drawing 490]
II: C#CCn1c(=O)c2c(nc(C#Cc3cccc(OC)c3)n2CC#C)n(C)c1=O [drawing 467]
III: C#CCn1c(=O)[nH]c2nc(C#Cc3cccc(OC)c3)n(C)c2c1=O
Lookup: Arrange these 3 molecules in increasing order of Ki. # the answer lists labels in the order requested
Found: I, II, III

1: C#CCn1c(=O)c2c(nc(C#Cc3ccc(OC)c(OC)c3)n2C)n(CC)c1=O [drawing 487]
2: C#CCn1c(=O)c2c(nc(C#Cc3ccc(OC)c(OC)c3)n2C)n(C)c1=O [drawing 458]
3: CCn1c(=O)n(Cc2ccoc2)c(=O)c2c1nc(C#Cc1ccc(OC)c(OC)c1)n2C
Lookup: hey, can you rank those molecules up there by Ki? biggest number first please # the answer lists labels in the order requested
Found: 3, 1, 2
(3: 90.7 nM, 1: 47.2 nM, 2: 32.7 nM)

1: C#CCn1c(=O)c2c(nc(C#Cc3ccc(OC)c(OC)c3)n2C)n(CCN(C)C)c1=O [drawing 489]
2: C#CCn1c(=O)c2c(nc(C#Cc3cccc(OC)c3)n2C)n(C)c1=O [drawing 456]
3: C#CCn1c(=O)c2c(nc(C#Cc3cccc(O)c3)n2C)n(C)c1=O [drawing 475]
Lookup: Arrange these 3 molecules in increasing order of Ki. # the answer lists labels in the order requested
Found: 2, 1, 3
